# pIC50 listing for each entry below
Molecular target: human SCD5 (Homo sapiens, UniProt Q86SK9)
Construct: expressed in transfected cells; host or cells: yeast strain with OLE1 deleted, plasmid-borne human SCD5 (selected in SD-Ura)
Sequence (Q86SK9 whole entry): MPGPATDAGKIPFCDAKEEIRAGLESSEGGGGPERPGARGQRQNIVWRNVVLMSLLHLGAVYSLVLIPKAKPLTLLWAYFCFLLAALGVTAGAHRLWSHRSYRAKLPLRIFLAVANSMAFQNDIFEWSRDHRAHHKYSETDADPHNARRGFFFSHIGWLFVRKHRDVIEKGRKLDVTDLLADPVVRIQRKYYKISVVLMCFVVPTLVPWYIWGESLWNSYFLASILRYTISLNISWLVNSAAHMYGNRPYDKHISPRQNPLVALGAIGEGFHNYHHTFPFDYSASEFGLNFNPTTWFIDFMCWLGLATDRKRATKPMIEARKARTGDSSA
Assay: Growth inhibition of yeast strain expressing human SCD5 as sole desaturase (OLE1 deleted), OD600 readout
Format: cell-based
Conditions: yeast strain expressing human SCD5 as sole desaturase; growth (OD600) after 40 h at 30° C.; read-out: SCD5 IC50
pIC50: −log10 of the molar value.
property_name: pIC50

N#Cc1cc(F)cc(Cc2ccc(NC(=O)c3cnc(Cl)cn3)nc2)c1 [Compound 646] :: 6.85
CCn1ccc(C(=O)Nc2ccc(Cc3cc(F)cc(F)c3)cn2)n1 [Compound 97] :: 7.70
O=C(Nc1ccc(Cc2cccc(F)c2)nn1)c1ccc(=O)n(C2CC2)n1 [Compound 178] :: 6.11
CN1N=C(C(=O)Nc2ncc(Cc3ccc(C#N)cc3)s2)CCC1=O [Compound 341] :: 5.57
O=C(Nc1ccc(Cc2cc(F)cc(F)c2)cn1)c1ncc(CO)cn1 [Compound 559] :: 8.00
N#Cc1cnc(C(=O)Nc2ccc(Cc3ccc(F)c(F)c3)cn2)nc1 [Compound 549] :: 6.05
CCn1nc(C(=O)Nc2ccc(Cc3cccc(Cl)c3)cn2)cc1O [Compound 489] :: 6.26
C#CCn1nc(C(=O)Nc2ccc(Cc3cccc(Cl)c3)cn2)ccc1=O [Compound 501] :: 8.00
Cn1ccc(C(=O)Nc2ccc(Cc3cc(F)ccc3F)cn2)cc1=O [Compound 630] :: 6.49
Cn1nc(C(=O)Nc2ccc(Oc3cc(F)cc(F)c3)cn2)ccc1=O [Compound 573] :: 5.64
CNC(=O)c1ccc(C(=O)Nc2ccc(Cc3ccc(F)c(F)c3)cn2)cn1 [Compound 593] :: 6.37
Cn1nc(C(=O)Nc2ccc(Cc3ccc(F)c(F)c3)cn2)ccc1=O [Example 35] :: 6.52
CN1N=C(C(=O)Nc2ncc(Cc3cccc(F)c3)s2)CCC1=O [Compound 220] :: 6.28
O=C(Nc1ccc(Cc2cccc(F)c2)cn1)c1ccn2cnnc2c1 [Compound 344] :: 4.58
N#Cc1cc(F)cc(Cc2ccc(NC(=O)c3ccc(C#N)nc3)nc2)c1 [Compound 535] :: 6.32
Cn1nc(NC(=O)N2CCC(Cc3cccc(Cl)c3)CC2)ccc1=O [Compound 309] :: 7.30
Cc1nnc(C(=O)Nc2ccc(Cc3cccc(Cl)c3)cn2)o1 [Compound 104] :: 7.40
CN1N=C(C(=O)Nc2ncc(Cc3cncc(Cl)c3)s2)CCC1=O [Compound 231] :: 5.50
Cn1cc(C(=O)Nc2ccc(COc3ccccc3)cn2)ccc1=O [Compound 600] :: 5.80
Cn1nc(C(=O)Nc2ccc(Cc3ccc(C(F)(F)F)cc3)cn2)ccc1=O [Example 39] :: 6.04
O=C(Nc1ccc(COc2cccc(Cl)c2)cn1)c1ccc(=O)n(C2CC2)c1 [Compound 291] :: 5.31
Cn1cc(C(=O)Nc2ccc(Nc3cccc(Cl)c3)cn2)ccc1=O [Compound 342] :: 4.68
CN(c1ccc(NC(=O)c2ccc(=O)n(C)c2)nc1)c1cccc(F)c1 [Compound 302] :: 5.48
CN1N=C(C(=O)Nc2ccc(Oc3cccc(Cl)c3)cn2)CCC1=O [Compound 157] :: 5.18
COc1cc(Cc2ccc(NC(=O)c3ccc(=O)n(C)c3)nc2)ccn1 [Compound 613] :: 6.22
CN1N=C(C(=O)Nc2ncc(C(O)c3cccc(F)c3)s2)CCC1=O (stereo not drawn) [Compound 205] :: 4.53
Cn1nc(C(=O)Nc2ccc(COc3cccc(Cl)c3)cn2)ccc1=O [Compound 262] :: 6.59
C=C(OCC)c1ccc(C(=O)Nc2ccc(Cc3cccc(Cl)c3)cn2)cn1 [Compound 320] :: 5.80
Cn1cc(C(=O)Nc2ccc(Oc3ccc(F)c(F)c3)cn2)ccc1=O [Compound 587] :: 5.96
